Data provenance: patent US20250332173A1

Tested on: MYB mRNA
Assay: RT-qPCR splicing assay, MYB canonical junction (CJ) and alternative junction (AJ) mRNA
Format: cell-based, human
Conditions: Homo sapiens; decrease in MYB canonical junction (CJ) mRNA, RT-qPCR; read-out: MYB CJ IC50
IC50 overview

// worked examples, IC50 included
compound="Cc1cn2nc(-c3ccc4c(=O)n(C5CCNCC5)ccc4c3)cc(C(=O)O)c2n1 [Compound 516]" parameter_measured=IC50 meas_value="1000 to 10000 nM"
compound="C[C@H]1C[C@@H](n2ccc3nc(-c4cc5cn(C)nc5cc4O)ncc3c2=O)CCN1 [Compound 1493]" parameter_measured=IC50 meas_value="100 to 1000 nM"
compound="Cc1cn2nc(-c3ccc4c(=O)n(C5CCNCC5)ccc4c3)cc(CCO)c2n1 [Compound 533]" parameter_measured=IC50 meas_value="100 to 1000 nM"
compound="Cn1cc2c(n1)CCN(c1ccc3c(=O)n(C4CCNCC4)ccc3c1)C2 [Compound 509]" parameter_measured=IC50 meas_value="> 10000 nM"
compound="CCN1CCC(N2CCc3cc(-c4cc(C)c5nc(C)cn5n4)ccc3C2=O)CC1 [Compound 270]" parameter_measured=IC50 meas_value="1000 to 10000 nM"
compound="Cc1cn2cc(-c3ccc4c(=O)n([C@H]5CCNC6(CC6)C5)ccc4n3)cc(F)c2n1 [Compound 1511]" parameter_measured=IC50 meas_value="100 to 1000 nM"
compound="Cc1cn2nc(-c3cc4ccn([C@@H]5CCNC5)c(=O)c4cc3O)cc(C)c2n1 [Compound 640]" parameter_measured=IC50 meas_value="100 to 1000 nM"
compound="Cc1cn2nc(-c3ccc4c(=O)n([C@H]5CCNC6(CC6)C5)ncc4c3)cc(C)c2n1 [Compound 369]" parameter_measured=IC50 meas_value="< 100 nM"

API: value(readout=IC50, system=MYB mRNA) for record Cc1cn2nc(-c3ccc4c(=O)n([C@H]5CCNC6(CC6)C5)cnc4c3)cc(C)c2n1 [Compound 349] 100 to 1000 nM

Here is the next compound: Cc1c(O)c(-c2ncc3c(=O)n([C@H]4CCN[C@@H](C)C4)ccc3n2)cc2cn(C)nc12 [Compound 1441] < 100 nM

Here is the next compound: Cc1cn2cc(-c3ccc4c(=O)n(C5CCNCC5)ccc4n3)cc(C)c2n1 [Compound 1241] < 100 nM

Here is the next compound: Cc1nc2c(F)cc(-c3ccc4c(=O)n(C5CCNCC5)cnc4c3)cc2s1 [Compound 285] 1000 to 10000 nM

----------
IC50 overview
System: MYB mRNA
Assay: RT-qPCR splicing assay, MYB canonical junction (CJ) and alternative junction (AJ) mRNA
Format: cell-based, human
Details: Homo sapiens; decrease in MYB canonical junction (CJ) mRNA, RT-qPCR; read-out: MYB CJ IC50

Form field: reported IC50 of CNCCn1ncc2cc(-c3cc(C)c4nc(C)cn4n3)ccc2c1=O [Compound 472] 100 to 1000 nM

Here is the next compound: Cc1cn2cc(-c3cc(F)c4c(=O)n(C5CCNC6(CC6)C5)ccc4c3)cc(C)c2n1 (centres unmarked) [Compound 416] < 100 nM

Here is the next compound: Cc1cn2cc(-c3ccc4c(c3)CCN(C3CCNCC3)C4=O)ncc2n1 [Compound 224] 1000 to 10000 nM

Here is the next compound: Cc1nc2c(F)cc(-c3ccc4c(=O)n(C5CCN(C)CC5)cnc4c3)cc2o1 [Compound 300] 100 to 1000 nM

Here is the next compound: Cn1cc2cc(-c3ncc4c(=O)n(C5CCNCC5)ccc4n3)c(O)cc2n1 [Compound 1211] < 100 nM

Here is the next compound: Cc1cn2nc(-c3ccc4c(=O)n(C5CCNCC5)ccc4c3)cc(Oc3ccccc3)c2n1 [Compound 519] < 100 nM

Here is the next compound: Cc1c(O)c(-c2ncc3c(=O)n([C@H]4CC[C@@H](N)C4)ccc3n2)cc2cn(C)nc12 [Compound 1473] 100 to 1000 nM

Here is the next compound: Cc1cn2nc(-c3ccc4c(c3)CCN([C@@H]3CCN[C@H](C)C3)C4=O)cc(C)c2n1 [Compound 281] 1000 to 10000 nM

----------
Test system: MYB mRNA
Test: RT-qPCR splicing assay, MYB canonical junction (CJ) and alternative junction (AJ) mRNA
Type: cell-based, human
Settings: Homo sapiens; increase in MYB alternative junction (AJ) mRNA, RT-qPCR; read-out: MYB AJ AC50
parameter-measured: AC50

compound="Cc1cn2nc(-c3ccc4c(=O)n(C5CCCNCC5)ncc4c3)cc(C)c2n1 (centres unmarked)" meas_value="100 to 1000 nM"

Form field: reported AC50 of Cc1c(O)c(-c2ncc3c(=O)n([C@H]4CCN[C@@H](C)C4)ccc3n2)cc2cn(C)nc12 < 100 nM

Here is the next compound: CN1CCN(c2ccc3c(=O)n(-c4ccc5cn(C)nc5c4)cnc3c2)CC1 > 10000 nM

Here is the next compound: Cc1cn2nc(-c3ccc4c(=O)n([C@@H]5CCNC6(CCC6)C5)ccc4n3)cc(C)c2n1 100 to 1000 nM

Here is the next compound: Cc1cn2nc(-c3ccc4c(=O)n(C5CCN(C)C5)ncc4c3)cc(C)c2n1 (centres unmarked) 1000 to 10000 nM

Here is the next compound: Cc1ncc(-c2ccc3c(=O)n(C4CCNCC4)cnc3c2)cn1 1000 to 10000 nM

Here is the next compound: Cc1c(O)c(-c2ccc3c(=O)n(C45CCC(NC(C)C)(CC4)C5)ccc3n2)cc2cn(C)nc12 < 100 nM

Here is the next compound: CCN1CCC(N2CCc3cc(-c4cc(C)c5nc(C)cn5n4)ccc3C2=O)CC1 1000 to 10000 nM

----------
System: Target C
Experiment: HiBiT protein abundance assay, Target C (Promega Nano-Glo HiBiT Lytic Detection System, knock-in K562 cell line)
Type: cell-based, human
Conditions: Homo sapiens, K562, 24 h, HiBiT K562 cell line, 24 hours, top dose 10 μM; read-out: Effect on protein abundance, Target C (IC50 category)
pIC50: −log10 of the molar value.
parameter-measured: pIC50

// worked examples, pIC50 included
compound="Cc1cn2nc(-c3cc(F)c4c(=O)n([C@H]5CCNC6(CC6)C5)ccc4c3)cc(C)c2n1 (single isomer, unassigned) [Compound 426]" meas_value="> 7.00"
compound="Cc1cn2nc(-c3ccc4c(=O)n(C5CCNCC5)ccc4c3)cc(Cc3nnn[nH]3)c2n1 [Compound 536]" meas_value="< 5.00"
compound="Cc1c(O)c(-c2ncc3c(=O)n(C4CCNCC4)cc(C)c3n2)cc2cn(C)nc12 [Compound 1191]" meas_value="> 7.00"
compound="Cc1cn2nc(-c3ccc4c(=O)n([C@@H]5CCNC6(CC6)C5)cnc4c3)cc(C)c2n1 [Compound 350]" meas_value="> 7.00"
compound="CNC(=O)c1cc(-c2ccc3c(=O)n(C4CCNCC4)ccc3c2)nn2cc(C)nc12 [Compound 518]" meas_value="5.00 to 6.00"

Form field: reported pIC50 of Cc1cn2cc(-c3cc(F)c4c(=O)n(C5CCNCC5)ccc4c3)cc(C#N)c2n1 [Compound 383] 6.00 to 7.00

----------
AC50 overview
Tested on: MYB mRNA
Test: RT-qPCR splicing assay, MYB canonical junction (CJ) and alternative junction (AJ) mRNA
Format: cell-based, human
Conditions: Homo sapiens; increase in MYB alternative junction (AJ) mRNA, RT-qPCR; read-out: MYB AJ AC50

// worked examples, AC50 included
molecule="Cc1c(O)c(-c2ncc3c(=O)n([C@@H]4CC5CC4CN5)ccc3n2)cc2cn(C)nc12 (stereo in doubt)" meas_value="100 to 1000 nM"
molecule=Cn1cc2cc(-c3ccc4c(=O)n(C5CCNCC5)ncc4c3)cc(F)c2n1 meas_value="1000 to 10000 nM"

Form field: reported AC50 of CN(c1ccc2c(=O)n(-c3ccc4nn(C)cc4c3)cnc2c1)C1CCNCC1 > 10000 nM

Here is the next molecule: Cc1cn2nc(-c3cc(O)c4c(=O)n(C5CCNCC5)ccc4c3)cc(C)c2n1 < 100 nM

Here is the next molecule: Cc1cn2cc(-c3ccc4c(=O)n(C5CCNCC5)cnc4c3)cc(C(F)(F)F)c2n1 1000 to 10000 nM

Here is the next molecule: Cc1cn2nc(-c3ccc4c(=O)n(C5CCNCC5)cnc4c3)nc2c(C)n1 100 to 1000 nM

Here is the next molecule: Cn1cc2cc(-c3cc4ccn(C5CCNCC5)c(=O)c4cn3)c(O)c(F)c2n1 1000 to 10000 nM

Here is the next molecule: Cc1cn2nc(-c3ccc4c(=O)n([C@H]5CCN[C@@H](C)C5)ccc4n3)cc(C)c2n1 < 100 nM
